Values from patent US20240209100A1

- TESTED SYSTEM: T1, IL-18 receptor (IL-18Rα/IL-18Rβ) overexpressed on HEK-Blue IL-18 cells (Homo sapiens (Human), UniProt Q13478 19-541; O95256 20-599)
- T1 sequence 1: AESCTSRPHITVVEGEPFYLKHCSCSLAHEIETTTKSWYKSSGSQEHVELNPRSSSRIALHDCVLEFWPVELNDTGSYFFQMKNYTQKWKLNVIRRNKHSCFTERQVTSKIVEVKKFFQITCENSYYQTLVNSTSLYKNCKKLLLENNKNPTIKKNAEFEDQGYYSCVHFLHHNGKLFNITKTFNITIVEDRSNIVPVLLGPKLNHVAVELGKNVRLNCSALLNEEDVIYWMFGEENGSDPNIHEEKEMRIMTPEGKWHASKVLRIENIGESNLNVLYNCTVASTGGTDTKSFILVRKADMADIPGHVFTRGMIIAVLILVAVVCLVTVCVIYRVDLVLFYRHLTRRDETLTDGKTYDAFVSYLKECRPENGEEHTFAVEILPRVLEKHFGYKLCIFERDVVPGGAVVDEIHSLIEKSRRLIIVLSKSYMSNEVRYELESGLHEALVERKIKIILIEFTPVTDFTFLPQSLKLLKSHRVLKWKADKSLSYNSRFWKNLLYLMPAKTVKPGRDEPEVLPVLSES
- T1 sequence 2: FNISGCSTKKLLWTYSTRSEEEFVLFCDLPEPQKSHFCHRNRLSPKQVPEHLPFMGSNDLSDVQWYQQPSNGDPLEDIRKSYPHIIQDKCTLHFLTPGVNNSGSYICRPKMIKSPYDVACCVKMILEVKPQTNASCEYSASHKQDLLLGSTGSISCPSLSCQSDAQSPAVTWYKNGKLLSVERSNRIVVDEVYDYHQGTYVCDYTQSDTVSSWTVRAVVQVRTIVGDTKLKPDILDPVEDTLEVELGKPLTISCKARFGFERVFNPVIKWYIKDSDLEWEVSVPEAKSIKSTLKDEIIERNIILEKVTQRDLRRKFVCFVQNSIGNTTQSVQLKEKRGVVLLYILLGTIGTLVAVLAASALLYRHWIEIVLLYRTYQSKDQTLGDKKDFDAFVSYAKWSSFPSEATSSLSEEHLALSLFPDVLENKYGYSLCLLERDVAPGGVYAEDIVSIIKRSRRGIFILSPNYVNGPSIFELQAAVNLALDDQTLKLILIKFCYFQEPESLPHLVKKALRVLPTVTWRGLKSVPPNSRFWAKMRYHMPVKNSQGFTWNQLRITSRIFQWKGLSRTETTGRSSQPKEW
- TEST DETAILS: cell-based or functional assay
# HEK-Blue IL-18: Abs 405 values compiled below
Unit Abs implied. Number only.

Example binders with recorded HEK-Blue IL-18: Abs 405:
[
  {
    "BINDER": "DGL309 (bispecific antibody, V domains shown) V domain 1: QVQLQESGGGLVQPGGSARLSCVASGIIFNDYHMGWYRQAPGKQRDLVAGITAGGSTTYADSVKGRFTISRDNAKHTVYLQMNNLSPEDTAVYYCNTFYNAILDWGKGTLVTVSS V domain 2: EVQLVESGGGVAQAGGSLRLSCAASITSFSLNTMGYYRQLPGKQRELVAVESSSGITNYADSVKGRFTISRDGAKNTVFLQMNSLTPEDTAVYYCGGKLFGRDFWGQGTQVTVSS",
    "MEASURED PROPERTY": "HEK-Blue IL-18: Abs 405",
    "READOUT NUMBER": 0.23
  },
  {
    "BINDER": "DGL311 (bispecific antibody, V domains shown) V domain 1: QVQLVESGGGLVQAGGSLRLSCAASGRTFSSYTMGWFRQAPGKEREFVAAISWSAGRTYYADSVKGRFTISRDNAKNTVYLQMNSLKPEDTAVYFCAAEEAPDWAPIDCSGYGCLSLYDYWGQGTQVTVSS V domain 2: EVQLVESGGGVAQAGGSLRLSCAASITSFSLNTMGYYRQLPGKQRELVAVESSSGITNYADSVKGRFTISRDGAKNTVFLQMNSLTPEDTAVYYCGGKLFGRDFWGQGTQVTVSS",
    "MEASURED PROPERTY": "HEK-Blue IL-18: Abs 405",
    "READOUT NUMBER": 0.79
  },
  {
    "BINDER": "DGL252 (bispecific antibody, V domains shown) V domain 1: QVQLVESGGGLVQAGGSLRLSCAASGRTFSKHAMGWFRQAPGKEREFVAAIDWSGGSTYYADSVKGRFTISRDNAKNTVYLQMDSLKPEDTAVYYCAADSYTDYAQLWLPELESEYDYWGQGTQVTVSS V domain 2: QVQLQESGGGLVQAGGSLRLSCAASASIFSRYAIGWYRQAPGKQRDLVAAITSGGTTNYADSVKGRFTISTDNAKNTVYLQMNSLKPEDTAVYSCAAGDSRANYYWGQGTQVTVSS",
    "MEASURED PROPERTY": "HEK-Blue IL-18: Abs 405",
    "READOUT NUMBER": 0.32
  },
  {
    "BINDER": "DGL256 (bispecific antibody, V domains shown) V domain 1: QVQLVESGGGLVQPGGSLRLSCTASGSDLHHYAIGWFRQAPGKEREGVSCISTTGAGTNYADSVKGRFTISRDNAKNTVYLQMDSLKPEETAVYYCAADGPSAIAGCVRTVASMYRYWGQGAQVTVSS V domain 2: QVQLVESGGGLVQPGGSLRLSCAASRITFSIYDMGWYRQAPGKQRELVASITRRGSTNYADSTKGRFTISRDNGKNTMYLQGNSLKPEDTAVYYCNARDILGRDYWGQGTQVTVSS",
    "MEASURED PROPERTY": "HEK-Blue IL-18: Abs 405",
    "READOUT NUMBER": 0.42
  }
]

Query: Item DGL310 (bispecific antibody, V domains shown) V domain 1: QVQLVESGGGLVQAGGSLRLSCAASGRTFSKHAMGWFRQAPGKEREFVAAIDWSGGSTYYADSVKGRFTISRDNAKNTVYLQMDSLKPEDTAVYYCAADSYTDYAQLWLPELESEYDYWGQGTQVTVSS V domain 2: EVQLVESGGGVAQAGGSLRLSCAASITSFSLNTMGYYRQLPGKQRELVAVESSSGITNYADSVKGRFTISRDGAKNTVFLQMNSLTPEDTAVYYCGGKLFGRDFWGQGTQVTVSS has what recorded HEK-Blue IL-18: Abs 405?
Response: 2.7
